# experimental_system: Prostaglandin D2 receptor 2 (Homo sapiens) (UniProt Q9Y5Y4)
# Sequence (whole entry): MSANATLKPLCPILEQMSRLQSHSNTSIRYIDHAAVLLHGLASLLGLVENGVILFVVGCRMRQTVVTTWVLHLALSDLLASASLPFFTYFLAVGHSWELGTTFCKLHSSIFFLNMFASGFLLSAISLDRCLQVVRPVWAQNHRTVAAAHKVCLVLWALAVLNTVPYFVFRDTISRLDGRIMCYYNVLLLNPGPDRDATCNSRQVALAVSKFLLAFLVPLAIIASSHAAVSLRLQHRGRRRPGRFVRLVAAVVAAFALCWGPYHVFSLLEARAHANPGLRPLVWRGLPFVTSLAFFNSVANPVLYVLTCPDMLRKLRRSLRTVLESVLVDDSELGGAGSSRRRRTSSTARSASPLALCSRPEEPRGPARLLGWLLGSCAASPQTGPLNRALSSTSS
# protocol_description: Agonist activity at human CRTH2 receptor expressed in CHO cell membrane assessed as induction of [35S]GTPgammaS binding at 20 uM after 30 mins by microbeta scintillation counting relative to PGD2
# Type: functional, cell membranes
# Emax values compiled below

CS(=O)(=O)c1ccc(CN(C(=O)C2CCCC2)c2cc(F)cc(-c3nnn[nH]3)c2)cc1 7%
CS(=O)(=O)c1ccc(CN(C(=O)Cc2ccccc2)c2cc(F)cc(-c3nnn[nH]3)c2)cc1 -10%
CCC(=O)N(Cc1cccc(OC)c1)c1cc(F)cc(-c2nnn[nH]2)c1 -11%
CCCCC(=O)N(Cc1ccc(OC(F)(F)F)cc1)c1cc(Cl)cc(-c2nnn[nH]2)c1 -10%
CCC(=O)N(Cc1cccc(O)c1)c1cc(F)cc(-c2nnn[nH]2)c1 -17%

Entry CCC(=O)N(Cc1ccc(C(F)(F)F)cc1)c1cc(F)cc(-c2nnn[nH]2)c1 — recorded Emax = -8%

Summary for this compound, CCCCC(=O)N(Cc1ccc(OC)cc1)c1cc(Cl)cc(-c2nnn[nH]2)c1 : Emax is -10%

Consider CCCCC(=O)N(Cc1ccc2c(c1)OCCO2)c1cc(F)cc(-c2nnn[nH]2)c1 . Its measured Emax is -15%
